# Target or test system: PmSiaT (Proteus mirabilis)
# Construct: made in house
# Sequence (B4EZY7 whole entry): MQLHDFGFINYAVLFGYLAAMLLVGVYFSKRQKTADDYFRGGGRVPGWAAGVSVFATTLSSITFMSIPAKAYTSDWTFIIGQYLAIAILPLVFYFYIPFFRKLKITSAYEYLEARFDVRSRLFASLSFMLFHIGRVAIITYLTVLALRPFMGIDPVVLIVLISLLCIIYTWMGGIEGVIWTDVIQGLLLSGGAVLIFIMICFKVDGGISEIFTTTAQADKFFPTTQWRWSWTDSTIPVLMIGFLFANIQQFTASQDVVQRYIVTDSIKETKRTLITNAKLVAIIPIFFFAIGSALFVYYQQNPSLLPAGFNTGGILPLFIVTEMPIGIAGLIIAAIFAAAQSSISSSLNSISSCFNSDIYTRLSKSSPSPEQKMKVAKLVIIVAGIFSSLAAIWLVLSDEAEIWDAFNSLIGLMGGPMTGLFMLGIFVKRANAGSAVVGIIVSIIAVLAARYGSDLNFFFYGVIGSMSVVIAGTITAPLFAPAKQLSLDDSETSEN
# Measurement description: nanoDSF thermal shift assay, PmSiaT
# Type: binding
# Setup conditions: PmSiaT, experiment 2, vs Neu5Ac; read-out: ΔTm 2
API: label(entry) gives Y if the entry's ΔTm is strictly smaller than 0.7 °C; on equality or larger values it gives N.

Compound: CC(C)(C)C(=O)NC1C(O)CC(O)(C(=O)O)OC1C(O)C(O)CO (stereo not shown) [Compound 6c]
Target or test system: PmSiaT (Proteus mirabilis)
Label: Y
--
Compound: CC(=O)NC1C(OCc2cc(Br)cc(Br)c2)CC(O)(C(=O)O)OC1C(O)C(O)CO (stereo not shown) [Compound 3f]
Target or test system: PmSiaT (Proteus mirabilis)
Label: N
--
Compound: O=C(NC1C(O)CC(O)(C(=O)O)OC1C(O)C(O)CO)c1ccccc1 (stereo not shown) [Compound 6d]
Target or test system: PmSiaT (Proteus mirabilis)
Label: Y
--
Compound: CC(=O)NC1C(OCc2ccc(Br)cc2)CC(O)(C(=O)O)OC1C(O)C(O)CO (stereo not shown) [Compound 3c]
Target or test system: PmSiaT (Proteus mirabilis)
Label: N
--
Compound: CC(=O)NC1C(OCc2ccc(C#N)cc2)CC(O)(C(=O)O)OC1C(O)C(O)CO (stereo not shown) [Compound 3d]
Target or test system: PmSiaT (Proteus mirabilis)
Label: N
--
Compound: CC(=O)NC1C(OCc2ccc(F)cc2)CC(O)(C(=O)O)OC1C(O)C(O)CO (stereo not shown) [Compound 3b]
Target or test system: PmSiaT (Proteus mirabilis)
Label: N
--
Compound: CC(C)C(=O)NC1C(O)CC(O)(C(=O)O)OC1C(O)C(O)CO (stereo not shown) [Compound 6b]
Target or test system: PmSiaT (Proteus mirabilis)
Label: Y
--
Compound: CC(=O)NC1C(OCc2cc(F)cc(F)c2)CC(O)(C(=O)O)OC1C(O)C(O)CO (stereo not shown) [Compound 3e]
Target or test system: PmSiaT (Proteus mirabilis)
Label: N
--
Compound: [N-]=[N+]=NCC(=O)N[C@H]1[C@H]([C@H](O)[C@H](O)CO)O[C@@](O)(C(=O)O)C[C@@H]1O [Compound 6h, reference compound]
Target or test system: PmSiaT (Proteus mirabilis)
Label: Y
--
Compound: CSCC(O)C(O)C1OC(O)(C(=O)O)CC(O)C1NC(C)=O (stereo not shown) [Compound 8a]
Target or test system: PmSiaT (Proteus mirabilis)
Label: Y
--
Compound: CC(=O)N[C@H]1[C@H]([C@H](O)[C@H](O)CO)OC(O)(C(=O)O)C[C@@H]1O (stereo partly shown) [Neu5Ac, 5-N-acetyl neuraminic acid, reference compound]
Target or test system: PmSiaT (Proteus mirabilis)
Label: Y
--
Compound: CC(=O)NC1C(O)CC(O)(C(=O)O)OC1C(O)C(O)CI (stereo not shown) [Compound 8e]
Target or test system: PmSiaT (Proteus mirabilis)
Label: Y
--
Compound: CCC(=O)NC1C(O)CC(O)(C(=O)O)OC1C(O)C(O)CO (stereo not shown) [Compound 6a]
Target or test system: PmSiaT (Proteus mirabilis)
Label: Y
--
Compound: O=C(Cc1ccccc1)NC1C(O)CC(O)(C(=O)O)OC1C(O)C(O)CO (stereo not shown) [Compound 6e]
Target or test system: PmSiaT (Proteus mirabilis)
Label: Y
--
Compound: CCSCC(O)C(O)C1OC(O)(C(=O)O)CC(O)C1NC(C)=O (stereo not shown) [Compound 8b]
Target or test system: PmSiaT (Proteus mirabilis)
Label: Y
--
Compound: CC(=O)NC1C(OCc2ccccc2)CC(O)(C(=O)O)OC1C(O)C(O)CO (stereo not shown) [Compound 3a]
Target or test system: PmSiaT (Proteus mirabilis)
Label: N
--
Compound: CC(=O)NC1C(O)CC(O)(C(=O)O)OC1C(O)C(O)CCl (stereo not shown) [Compound 8c]
Target or test system: PmSiaT (Proteus mirabilis)
Label: Y
--
Compound: CC(=O)NC1C(O)CC(O)(C(=O)O)OC1C(O)C(O)CBr (stereo not shown) [Compound 8d]
Target or test system: PmSiaT (Proteus mirabilis)
Label: Y
